# experimentDescription: blockers of RIG-like receptor reporter activation – cell-based, Sendai virus stimulus, luciferase, 10K MLSCN set, TLR/RLR signaling modifier project, primary screen (AID 602276);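 further: firefly luciferase from ISG56 promoter only with Renilla not read in this screen; 0% = Sendai virus plus DMSO and 100% = medium plus DMSO without virus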
# particulars: HEK293 RL24 IRF3 luciferase reporter, at 10 µM, stronger effect = higher value
Decide using inhibition: a value greater than or equal to 20% is true (1), a smaller one is false (0).

>  <molecule>
CCOc1ccc2[nH]c(O)c(NC(C)=O)c2c1

>  <categoryLabel>
false (0)

$$$$
>  <molecule>
Cc1cc(NCCN2CCOCC2)n2nc(C)c(-c3ccccc3)c2n1

>  <categoryLabel>
false (0)

$$$$
>  <molecule>
CCOC(=O)c1c(C)oc2ccc(OCC(=O)N(CC)CC)cc12

>  <categoryLabel>
false (0)

$$$$
>  <molecule>
COC(=O)COc1ccc(C(=O)OC)cc1

>  <categoryLabel>
false (0)

$$$$
>  <molecule>
c1ccc(CSCc2cn3ccsc3n2)cc1

>  <categoryLabel>
false (0)

$$$$
>  <molecule>
COc1ccc(C)cc1NC(=O)CN1CCN(S(=O)(=O)c2ccc(Cl)cc2)CC1

>  <categoryLabel>
false (0)

$$$$
>  <molecule>
O=C(CSc1ncn[nH]1)c1ccco1

>  <categoryLabel>
false (0)

$$$$
>  <molecule>
CC(C)COc1ccc(-c2nnn(CC(=O)N3CCCC3)n2)cc1

>  <categoryLabel>
false (0)

$$$$
>  <molecule>
CCn1ncc(C2=NOC(C(=O)NCc3ccccc3)C2)c1C (configuration not stated)

>  <categoryLabel>
false (0)

$$$$
>  <molecule>
COc1ccc(-n2nnnc2-c2cccc(OC)c2)cc1

>  <categoryLabel>
true (1)

$$$$
>  <molecule>
O=S(=O)(NCCc1ccncc1)c1cc(Br)ccc1F

>  <categoryLabel>
true (1)

$$$$
>  <molecule>
Cc1cccc(NC(=O)c2cc3ccccc3o2)c1

>  <categoryLabel>
false (0)

$$$$
